- System: NCI-H226 lung
- experiment.notes: NCI tumour cell line growth inhibition, 48 h
Decide by TGI: equal to or exceeding 30 µM means 1, less means 0.

# compound, class.name
records = [
    ("CCCN(CCc1ccc(-c2ccccc2)cc1)CCc1ccc2n[nH]nc2c1", 1),
    ("Cc1ccc(Nc2nc3c(s2)C(=O)c2ccccc2C3=O)c(C)c1", 0),
    ("COc1ccc(N2C(=O)C3c4[nH]c5ccc(C)cc5c4C4CCC(C(C)(C)C)CC4C3C2=O)cc1 (stereo not given)", 1),
    ("COc1cccc(Nc2nc(C)c([N+](=O)[O-])c(Nc3cccc(OC)c3)n2)c1", 1),
    ("COc1cc(OC)c(/C=C/C(=O)c2c(OC)cccc2OC)c(OC)c1", 1),
]

[Q] Assess whether reported TGI for CCN(CCCl)c1cc(CN(C)C)cc(NC(=O)c2ccc(C(=O)Nc3cc(CN(C)C)cc(N(CC)CCCl)c3)cc2)c1 sits at 30 µM or higher.
[A] 0

[Q] Assess whether reported TGI for C/C(Cl)=N/OC(=O)Nc1ccc(F)c([N+](=O)[O-])c1 sits at 30 µM or higher.
[A] 1

[Q] Assess whether reported TGI for CCCCCCCCCCCCCCCCP(=O)(O)OCC(N)C(=O)O (stereo not given) sits at 30 µM or higher.
[A] 1

[Q] Assess whether reported TGI for Cc1c(N=Nc2ccccc2)c(-c2ccccc2)n(C2OC(CO)C(O)C(O)C2O)c(=S)c1C#N (stereo not given) sits at 30 µM or higher.
[A] 0

[Q] Assess whether reported TGI for CC[C@]12C=CCN3CC[C@@]4(c5cc(Br)c(OC)c([N+](=O)[O-])c5N(C)[C@H]4[C@@](O)(C(=O)OC)[C@@H]1OC(C)=O)[C@@H]32 sits at 30 µM or higher.
[A] 1

[Q] Assess whether reported TGI for COc1cc(NC(=O)c2cc(O)c(CC=C(C)C)c(O)c2)cc2c1O[C@]1(C)CC[C@@H](O)C(C)(C)[C@H]1C2 sits at 30 µM or higher.
[A] 1

[Q] Assess whether reported TGI for Fc1cc(F)c(COc2cc(Cn3cnc4c(Cl)nc(Cl)nc43)ccc2C23CC4CC(CC(C4)C2)C3)cc1F sits at 30 µM or higher.
[A] 0

[Q] Assess whether reported TGI for COc1nn(Cc2ccccn2)c2ccc([N+](=O)[O-])cc12 sits at 30 µM or higher.
[A] 1

====

- Tested on: OVCAR-5 ovarian
- experiment.notes: NCI tumour cell line growth inhibition, 48 h
endpoint: GI50

Worked set:
# compound, GI50
measured = [
    ("O=C(c1cccc(O)c1O)c1cn(Cc2ccc(F)cc2)c2cccc(O)c12", "9.04 µM"),
    ("CCOC(=O)Sc1ncnc2nc[nH]c12", "4.49 µM"),
    ("Cc1cn2c(/C=C3/C(=O)N(C)c4ccccc43)c(C)nc2s1", "28.6 µM"),
    ("CN(C)CCCn1c2c(c3ccccc3c1=O)C(=O)c1ccccc1-2", "3.06 µM"),
    ("COc1cc(NC(=O)c2cc(O)c(CC=C(C)C)c(O)c2)cc2c1O[C@]1(C)CC[C@@H](O)C(C)(C)[C@H]1C2", "12 µM"),
]

Please turn your attention to the following entry.
[Q] Looking for the measured GI50 of CCC1(O)C(=O)OCc2c1cc1n(c2=O)Cc2cc3ccc(C=O)cc3nc2-1 (stereo unspecified) , can you help?
[A] 10.5 µM
